Molecular target: UniProt O94966
Sequence (O94966 1-1318): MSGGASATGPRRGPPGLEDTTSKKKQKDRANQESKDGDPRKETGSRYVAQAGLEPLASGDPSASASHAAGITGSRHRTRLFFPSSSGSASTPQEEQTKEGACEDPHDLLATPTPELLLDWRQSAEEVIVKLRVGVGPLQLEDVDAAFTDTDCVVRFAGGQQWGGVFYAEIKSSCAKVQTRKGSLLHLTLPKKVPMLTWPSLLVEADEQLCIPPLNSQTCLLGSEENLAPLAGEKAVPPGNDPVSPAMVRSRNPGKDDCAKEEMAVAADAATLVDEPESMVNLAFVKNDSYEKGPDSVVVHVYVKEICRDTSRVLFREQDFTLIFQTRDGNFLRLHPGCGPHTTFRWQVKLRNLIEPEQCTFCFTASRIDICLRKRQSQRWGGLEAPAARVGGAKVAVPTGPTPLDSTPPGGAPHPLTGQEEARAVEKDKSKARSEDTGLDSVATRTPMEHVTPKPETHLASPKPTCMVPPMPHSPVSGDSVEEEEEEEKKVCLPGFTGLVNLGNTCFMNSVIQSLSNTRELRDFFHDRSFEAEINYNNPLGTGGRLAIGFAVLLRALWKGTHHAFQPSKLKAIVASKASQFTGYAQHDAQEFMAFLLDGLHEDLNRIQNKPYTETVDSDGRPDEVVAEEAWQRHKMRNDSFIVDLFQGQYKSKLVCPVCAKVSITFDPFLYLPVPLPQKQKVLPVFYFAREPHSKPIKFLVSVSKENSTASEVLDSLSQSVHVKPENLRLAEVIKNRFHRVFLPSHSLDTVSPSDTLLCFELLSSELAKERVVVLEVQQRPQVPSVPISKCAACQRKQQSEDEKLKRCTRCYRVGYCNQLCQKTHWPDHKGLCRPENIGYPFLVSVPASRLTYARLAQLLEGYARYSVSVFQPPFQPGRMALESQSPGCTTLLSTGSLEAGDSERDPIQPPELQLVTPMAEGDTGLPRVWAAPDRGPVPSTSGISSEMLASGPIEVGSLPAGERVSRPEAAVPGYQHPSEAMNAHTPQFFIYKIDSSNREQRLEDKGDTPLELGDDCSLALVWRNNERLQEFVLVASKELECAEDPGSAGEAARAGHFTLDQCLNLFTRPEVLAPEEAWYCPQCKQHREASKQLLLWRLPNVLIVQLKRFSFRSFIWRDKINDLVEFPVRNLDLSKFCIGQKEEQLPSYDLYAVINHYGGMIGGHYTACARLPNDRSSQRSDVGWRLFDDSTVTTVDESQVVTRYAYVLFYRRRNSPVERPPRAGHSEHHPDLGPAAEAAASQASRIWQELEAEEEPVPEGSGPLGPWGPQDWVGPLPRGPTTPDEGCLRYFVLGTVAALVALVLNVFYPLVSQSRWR
pIC50: −log10 of the molar value. Where a name gives a salt, the structure may show the parent alone.

[
  {
    "compound": "CN[C@@H]1CCN(C(=O)N2CC[C@@H](Cn3cnc4ccc(F)cc4c3=O)C3(CCCC3)C2)[C@H](c2cccc(F)c2F)C1 [Example 166]",
    "pIC50": "> 8.00"
  },
  {
    "compound": "N[C@@H]1CCN(C(=O)N2CC[C@@H](Cn3ccc(Cl)cc3=O)C3(CCCC3)C2)[C@H](c2ccccc2)C1 [Example 67]",
    "pIC50": "> 8.00"
  },
  {
    "compound": "CN(C)[C@@H]1CCN(C(=O)N2CC[C@@H](Cn3cnc4ccc(F)cc4c3=O)C3(CCCC3)C2)[C@H](c2cc(F)cc(F)c2)C1 [Example 184, hydrochloride]",
    "pIC50": "6.00 to 7.00"
  },
  {
    "compound": "CN[C@@H]1CCN(C(=O)N2CC[C@@H](Cn3ccc(-c4ccccc4)cc3=O)C3(CCCC3)C2)[C@H](c2cc(F)ccc2F)C1 [Example 91]",
    "pIC50": "> 8.00"
  },
  {
    "compound": "N[C@@H]1CCN(C(=O)N2CC[C@@H](Cn3ccc(-c4ccccc4)cc3=O)C3(CCCC3)C2)[C@H](c2cc(F)ccc2F)C1 [Example 87]",
    "pIC50": "> 8.00"
  },
  {
    "compound": "CC1(N[C@@H]2CCN(C(=O)N3CC[C@@H](Cn4ccc(-c5ccccc5)cc4=O)C4(CCCC4)C3)[C@H](c3ccccc3)C2)COC1 [Example 111]",
    "pIC50": "> 8.00"
  },
  {
    "compound": "CN[C@@H]1CCN(C(=O)N2CC[C@@H](Cn3cnc(-c4ccccc4OC)cc3=O)C3(CCCC3)C2)[C@H](c2ccccc2F)C1 [Example 103]",
    "pIC50": "> 8.00"
  },
  {
    "compound": "CN[C@@H]1CCN(C(=O)N2CC[C@@H](Cn3cnc(-c4ccccc4C)cc3=O)C3(CCCC3)C2)[C@H](c2cc(F)cc(F)c2)C1 [Example 146]",
    "pIC50": "> 8.00"
  },
  {
    "compound": "CC1(C)CN(C(=O)N2CCNC[C@H]2c2ccccc2)CCC1Cn1ccc(-c2ccccc2)cc1=O (stereo partly shown) [Example 20]",
    "pIC50": "7.00 to 8.00"
  },
  {
    "compound": "O=C(N1CC[C@@H](Cn2cnc(C(F)F)cc2=O)C2(CCCC2)C1)N1CC[C@@H](NC2CC(F)(F)C2)C[C@H]1c1cc(F)ccc1F [Example 183]",
    "pIC50": "7.00 to 8.00"
  },
  {
    "compound": "N[C@@H]1CC[C@@H](c2ccccc2)N(C(=O)N2CC[C@@H](Cn3cnc(-c4ccccc4)cc3=O)C3(CCCC3)C2)C1 (racemic) [Example 188]",
    "pIC50": "7.00 to 8.00"
  },
  {
    "compound": "N[C@@H]1CCN(C(=O)N2CCC(Cn3cnc4cc(F)c(F)cc4c3=O)C3(CCCC3)C2)[C@H](c2ccccc2)C1 (stereo partly shown) [Example 37]",
    "pIC50": "> 8.00"
  },
  {
    "compound": "CCN[C@@H]1CCN(C(=O)N2CCC(Cn3cnc(-c4ccccc4)cc3=O)CC2)[C@H](c2ccccc2)C1 [Example 75]",
    "pIC50": "7.00 to 8.00"
  },
  {
    "compound": "N[C@@H]1CCN(C(=O)N2CC[C@@H](Cn3ccc(-c4ccccc4)cc3=O)C3(CCCC3)C2)[C@H](c2cc(F)cc(F)c2)C1 [Example 108]",
    "pIC50": "> 8.00"
  },
  {
    "compound": "CN[C@@H]1CCN(C(=O)N2CC[C@@H](Cn3ccc(-c4ccccc4OC)cc3=O)C3(CCCC3)C2)[C@H](c2cc(F)cc(F)c2)C1 [Example 126]",
    "pIC50": "> 8.00"
  },
  {
    "compound": "N[C@@H]1CCN(C(=O)N2CC[C@@H](Cn3ccc(-c4ccccc4F)cc3=O)C3(CCCC3)C2)[C@H](c2ccccc2)C1 [Example 61]",
    "pIC50": "> 8.00"
  },
  {
    "compound": "CN(C)[C@@H]1CCN(C(=O)N2CC[C@@H](Cn3cnc4ccc(F)cc4c3=O)C3(CCCC3)C2)[C@H](c2cc(F)ccc2F)C1 [Example 174]",
    "pIC50": "> 8.00"
  },
  {
    "compound": "O=C(N1CC[C@@H](Cn2cnc(-c3ccccc3)cc2=O)C2(CCCC2)C1)N1CC[C@@H](NCc2ccccn2)C[C@H]1c1ccccc1 [Example 144]",
    "pIC50": "> 8.00"
  },
  {
    "compound": "N[C@@H]1CCN(C(=O)N2CCC(Cn3ccc(C(F)(F)F)cc3=O)C3(CCCC3)C2)[C@H](c2ccccc2)C1 (stereo partly shown) [Example 43]",
    "pIC50": "7.00 to 8.00"
  },
  {
    "compound": "O=C(N1CC[C@@H](Cn2cnc(-c3ccccc3)cc2=O)C2(CCCC2)C1)N1CC[C@@H](NCCO)C[C@H]1c1ccccc1 [Example 161]",
    "pIC50": "> 8.00"
  },
  {
    "compound": "N[C@H]1C[C@@H](c2ccccc2)N(C(=O)N2CC[C@@H](Cn3cnc(-c4ccccc4)cc3=O)C3(CCCC3)C2)C1 [Example 70]",
    "pIC50": "> 8.00"
  },
  {
    "compound": "CN[C@@H]1CCN(C(=O)N2CC[C@@H](CN3CCC(c4ccccc4)=CC3=O)C3(CCCC3)C2)[C@H](c2cc(F)ccc2F)C1 [Example 168]",
    "pIC50": "> 8.00"
  },
  {
    "compound": "O=C(N1CC[C@@H](Cn2cnc(-c3ccccc3)cc2=O)C2(CCCC2)C1)N1CC[C@@H](NCc2ccncn2)C[C@H]1c1cc(F)ccc1F [Example 170]",
    "pIC50": "> 8.00"
  },
  {
    "compound": "O=C(N1CC[C@@H](Cn2ccc(-c3ccccc3)cc2=O)C2(CCCC2)C1)N1CC[C@@H](O)C[C@H]1c1ccccc1 [Example 44]",
    "pIC50": "7.00 to 8.00"
  },
  {
    "compound": "O=C(O)CN[C@@H]1CCN(C(=O)N2CC[C@@H](Cn3cnc(-c4ccccc4)cc3=O)C3(CCCC3)C2)[C@H](c2ccccc2)C1 [Example 106]",
    "pIC50": "> 8.00"
  }
]
